Quick reference: pIC50 of the listed items.
- Assayed Target: Interleukin-23 receptor (Homo sapiens, UniProt Q5VWK5)
- Sequence (Q5VWK5 whole entry): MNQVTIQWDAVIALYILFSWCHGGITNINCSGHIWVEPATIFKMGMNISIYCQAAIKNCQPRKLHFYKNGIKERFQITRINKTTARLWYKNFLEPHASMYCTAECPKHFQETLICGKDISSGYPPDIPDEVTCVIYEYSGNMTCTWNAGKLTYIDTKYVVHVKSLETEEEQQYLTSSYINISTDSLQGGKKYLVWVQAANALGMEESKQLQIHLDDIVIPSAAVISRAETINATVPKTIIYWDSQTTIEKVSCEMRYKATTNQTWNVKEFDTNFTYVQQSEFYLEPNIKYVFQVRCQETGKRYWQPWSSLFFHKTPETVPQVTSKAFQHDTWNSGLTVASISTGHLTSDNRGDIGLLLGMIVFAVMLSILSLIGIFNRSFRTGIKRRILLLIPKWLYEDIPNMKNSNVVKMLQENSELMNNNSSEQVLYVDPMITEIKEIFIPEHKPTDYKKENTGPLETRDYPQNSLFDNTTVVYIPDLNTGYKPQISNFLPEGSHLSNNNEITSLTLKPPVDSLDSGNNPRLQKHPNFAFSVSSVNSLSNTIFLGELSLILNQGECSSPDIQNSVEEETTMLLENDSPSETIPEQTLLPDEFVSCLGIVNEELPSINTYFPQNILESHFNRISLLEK
- Test: Inhibition of interleukin-23 binding to human interleukin-23 receptor incubated for 2 hrs by competitive binding ELISA
pIC50: −log10 of the molar value.

CC(=O)N[C@H](C(=O)N[C@@H](CO)C(=O)N[C@H](C(=O)N[C@@H](Cc1c[nH]c2ccccc12)C(=O)N[C@@H](CCC(N)=O)C(=O)N[C@H](C(=O)N[C@@H](Cc1ccc(OCCN)cc1)C(=O)N[C@@H](Cc1ccc2ccccc2c1)C(=O)N[C@@](C)(CCCCN)C(=O)N[C@@H](CCC(=O)O)C(=O)N[C@@H](CC(N)=O)C(=O)NCC(N)=O)C(C)(C)S)[C@@H](C)O)C(C)(C)S; 7.60 to 8.00

Shift focus to the following entry.
Ask: Complete the entry with pIC50 for CC(=O)N[C@H]1CCSC[C@@H](C(=O)N[C@@H](Cc2ccc(OCCN)cc2)C(=O)N[C@@H](Cc2c[nH]c3ccccc23)C(=O)N[C@@H](CCC(C)C)C(=O)N[C@@H](CCC(=O)O)C(=O)N[C@@H](CC(N)=O)C(=O)NCC(N)=O)NC(=O)[C@H](CCC(N)=O)NC(=O)[C@H](Cc2c[nH]c3ccccc23)NC(=O)[C@H]([C@@H](C)O)NC(=O)[C@H](CCC(N)=O)NC1=O
Reply: 7.60 to 8.00

====

A collection of compounds and their measured IC50
- Assayed Target: Interleukin-23 receptor (Homo sapiens, UniProt Q5VWK5)
- Test: Inhibition of interleukin-23 receptor in human DB cells assessed as reduction in IL-23-stimulated STAT3 phosphorylation incubated for 30 mins by HTRF assay
- Type: cell-based

CC(=O)N[C@H](C(=O)N[C@@H](CCC(N)=O)C(=O)N[C@H](C(=O)N[C@@H](Cc1c[nH]c2ccccc12)C(=O)N[C@@H](CCC(N)=O)C(=O)N[C@H](C(=O)N[C@@H](Cc1ccc(O)cc1)C(=O)N[C@@H](Cc1c[nH]c2ccccc12)C(=O)N[C@@](C)(CC(C)C)C(=O)N[C@@H](CCC(=O)O)C(=O)N[C@@H](CC(N)=O)C(=O)NCC(N)=O)C(C)(C)S)[C@@H](C)O)C(C)(C)S; 0.01 to 0.025 µM

# next compound below
Ask: Determine reported IC50 for CC(=O)NCCCC[C@H](NC(=O)C(C)(C)NC(=O)[C@H](Cc1ccc2ccccc2c1)NC(=O)[C@H](Cc1ccc(OCCN)cc1)NC(=O)[C@@H](NC(=O)[C@H](CCC(N)=O)NC(=O)[C@H](Cc1c[nH]c2ccccc12)NC(=O)[C@@H](NC(=O)[C@H](CCC(N)=O)NC(=O)[C@@H](NC(=O)[C@@H](CCCNC(=N)N)NC(C)=O)C(C)(C)S)[C@@H](C)O)C(C)(C)S)C(=O)N[C@@H](CC(N)=O)C(=O)N[C@@H](CC(N)=O)C(N)=O ; test system: Interleukin-23 receptor (Homo sapiens, UniProt Q5VWK5).
Reply: < 0.01 µM
